These entries and their values trace back to ChEMBL document CHEMBL1201862.

Tested on: SNB-19
Test: NCI tumour cell line growth inhibition, 48 h
Activity calls are given as the source filed them. Cut-off read from the data, not from the text of the source: active = GI50 up to about 1.1 µM and inactive = higher.
Listing: GI50 of selected molecules
OUTCOME_MEASURE: GI50

INSERT INTO measurements (molecule, target_or_test_system, outcome_measure, reported_value) VALUES
  ('Nc1ccccc1C(=O)CCC1C(=O)NC(=S)NC1=O', 'SNB-19', 'GI50', '> 100 µM (inactive)'),
  ('O=C(/C=N/O)Nc1ccc(Cl)c(I)c1', 'SNB-19', 'GI50', '23.9 µM (inactive)'),
  ('CS/C(=N\S(=O)(=O)c1ccc(Cl)cc1)NCCCCN/C(=N/S(=O)(=O)c1ccc(Cl)cc1)SC', 'SNB-19', 'GI50', '> 100 µM (inactive)'),
  ('CCOP(=O)(OCC)c1c(C(=O)OC)cc(=O)[nH]c1-c1ccc(C)cc1', 'SNB-19', 'GI50', '21.6 µM (inactive)'),
  ('COc1nc2c(c(=O)n1C)N(C(C)=O)C1C(N2)OCC(OC(C)=O)C1OC(C)=O (stereo not given)', 'SNB-19', 'GI50', '> 10 µM (inactive)'),
  ('CCCC(=O)NC(Nc1ccc(S(=O)(=O)Nc2ccc(OC)nn2)cc1)(C(F)(F)F)C(F)(F)F', 'SNB-19', 'GI50', '> 100 µM (inactive)'),
  ('COc1ccc2c(c1)/C(=C(\C(Cl)=C(\Cl)N1CCCCC1)[N+](=O)[O-])N2', 'SNB-19', 'GI50', '> 100 µM (inactive)'),
  ('Cc1c(C#N)c2nnn(-c3ccccc3)c(=O)n2c1-c1ccccc1', 'SNB-19', 'GI50', '3.31 µM (inactive)'),
  ('COc1ccc(OC)c(/C=C(/C#N)c2ccccc2)c1', 'SNB-19', 'GI50', '52 µM (inactive)'),
  ('Cc1ccc(NC(=O)CCC(=O)C(C#N)c2ccccc2)cc1C (stereo not given)', 'SNB-19', 'GI50', '> 100 µM (inactive)');
